The values you see were collected from the array DNA melting data of Ke et al. (doi:10.1101/2024.01.08.574731).

assay: folding enthalpy; higher = less favourable; fluorescence melt of hairpins on a sequencing array, two-state fit; conditions: sodium 0.088 M
// folding enthalpy lookup, one value per entry
State the answer as a number, implicitly in kcal/mol.

Worked set:
>>> print(df.to_string())
                         record_sequence          property  recorded_number
0  GGTCTACGAAAGTACACC (((.(((....))).)))  folding enthalpy              -22
1  GCCCTCGAAAGAGATGGC ((((((....)))..)))  folding enthalpy            -23.6
2  GCGCAGCGAAAGCCGTGC ((.(.((....)).).))  folding enthalpy            -9.79
3      GATCACCCGAGTGATC ((((((....))))))  folding enthalpy            -41.3
4  GTGAGCGAAAGCTGCCAC ((((((....)))..)))  folding enthalpy            -8.52

Turning to the following sequence.
Name the recorded folding enthalpy for GTCAAGGGAAACTTTGAC (((((.(....).))))) .
-26.4

###

assay: melting temperature; fluorescence melt of hairpins on a sequencing array, two-state fit, raised by 9.35 °C to match UV melts; conditions: sodium 0.088 M
// Tm lookup, one value per entry
Your reply should be a number followed by the unit it is expressed in.

Worked set:
>>> df
                         record_sequence   result
0  GACGCCGGAAACGACGCC (.((.((....)).)).)  39.7 °C
1        GATCAGTGACTGATC ((((((...))))))  48.7 °C

Name the recorded Tm for GCAATGCGAAAGCTTCGC ((.(.((....)).).)) .
44 °C

Name the recorded Tm for GTTGTTGGAAACAATAGC (.(.(((....))).).) .
31.2 °C

Name the recorded Tm for CTGTTGAAAAACAG (((((....))))) .
42.3 °C

Name the recorded Tm for GCATTTGAAAAAATGC ((((((....)))))) .
52.8 °C

Name the recorded Tm for GTTGACGAAAGTCACAAC ((((((....)))..))) .
36.2 °C

Name the recorded Tm for GATCCACAGCTGGATC ((((((....)))))) .
47.6 °C

Name the recorded Tm for GACGTCCCGAAAGGGGTC (((..(((....)))))) .
39.9 °C

Name the recorded Tm for GTCACAGGAAACTGTAAC ((.((((....)))).)) .
30.9 °C

Name the recorded Tm for GGCCACGAAAGTGTCGCC ((((((....)))..))) .
50 °C

Name the recorded Tm for GCTTCGCGAAAGCCAGGC ((.(.((....)).).)) .
30.3 °C

###

assay: melting temperature; fluorescence melt of hairpins on a sequencing array, two-state fit, raised by 9.35 °C to match UV melts; settings: sodium 0.088 M
property: Tm (°C)
State the answer as a number, implicitly in °C.

                         record_sequence  unit_spec  recorded_number
0      GATCATCGTTATGATC ((((((....))))))         °C             47.2
1      GATCGTCCAAACGATC ((((((....))))))         °C             55.2
2  GCTAACGAAAGTTTCAGC ((((((....)))..)))         °C             29.7
3  GCAGTAGGAAACCACTGC (((((.(....).)))))         °C             48.2

Name the recorded Tm for GGAGGCGAAAGCCTTTCC ((((((....)))..))) .
32.4

Name the recorded Tm for GATCCAGTCTGGATC ((((((...)))))) .
55.1

Name the recorded Tm for GGCTGTGGAAACACAGTC (.(((((....))))).) .
54.2

Name the recorded Tm for GTGTGTGGAAACACATGC (..((((....))))..) .
49.6

Name the recorded Tm for GAATAACCGAAAGGTTTC (((..(((....)))))) .
25.6

Name the recorded Tm for GCCGCAGGAAACTGCAGC ((.((((....)))).)) .
49

Name the recorded Tm for GTTAGCGGAAACACTAAC (((((.(....).))))) .
36.6

Name the recorded Tm for GACACCGGAAACGGTATC ((.((((....)))).)) .
36.1

###

// folding enthalpy lookup, one value per entry
assay: folding enthalpy; higher = less favourable; fluorescence melt of hairpins on a sequencing array, two-state fit; conditions: sodium 0.088 M
Your reply should be a number followed by the unit it is expressed in.

Name the recorded folding enthalpy for GCTCCGGGAAACCGGGGC ((.((((....)))).)) .
-180 kJ/mol

Name the recorded folding enthalpy for GTCTCTGGAAACAGAGGC (.(((((....))))).) .
-110 kJ/mol

###

test: melting temperature; fluorescence melt of hairpins on a sequencing array, two-state fit, raised by 9.35 °C to match UV melts; settings: sodium 0.088 M
property: Tm

Worked set:
                         record_sequence  property   result
0    GGAGTGCGAAAGCATCC (((.(((....))))))        Tm  48.2 °C
1  GCCTACGAAAGTACGGGC ((((((....)))..)))        Tm  46.3 °C
2      GATCGTTAGAACGATC ((((((....))))))        Tm  55.2 °C
3  GGGGCCGAAAGGCCACCC ((((((....)))..)))        Tm    60 °C
4  GTGAAGGCGAAAGCCCAC (((..(((....))))))        Tm  46.7 °C

Turning to the following sequence.
Name the recorded Tm for GCTAGCGAAAGCTAAAGC ((((((....)))..))) .
46 °C

###

// Tm lookup, one value per entry
assay: melting temperature; fluorescence melt of hairpins on a sequencing array, two-state fit, raised by 9.35 °C to match UV melts; conditions: sodium 0.088 M
State the answer as a number, implicitly in °C.

Worked set:
                         record_sequence  unit_spec  recorded_number
0  GGCACAGGAAACCATGCC ((((..(....)..))))         °C             36.1
1  GAGTGGGGAAACCCGCTC (((.(((....))).)))         °C             55.6
2  GCTGGTGCGAAAGCAAGC (((..(((....))))))         °C               43
3  GGCATCGAAAGATTGGCC ((((((....)))..)))         °C             44.2
4  GAATTGGGAAACCGATTC ((((.((....)).))))         °C             43.4
5  GAAGTTGGAAACAGCTTC ((((.((....)).))))         °C             44.4
6  GTGTCCGAAAGGATACAC ((((((....)))..)))         °C               49
7  GAGCGGGGAAACCTGCTC ((((.((....)).))))         °C             57.3
8  GTGTGGGGAAACCCACAC (((((((....)))))))         °C               69
9  GAAACACGAAAGTGCTTC (((.(((....))).)))         °C             43.8

Name the recorded Tm for GGTTGTGGAAACATAGCC ((.(.((....)).).)) .
31.6

Name the recorded Tm for GACTTTGGAAACAAAGCC (.(((((....))))).) .
39

###

assay: folding enthalpy; higher = less favourable; fluorescence melt of hairpins on a sequencing array, two-state fit; details: sodium 0.088 M
Response field class: string, computed from recorded folding enthalpy by ranges class 0 (below -30 kcal/mol), class 1 (-30 kcal/mol to below -10 kcal/mol), class 2 (-10 kcal/mol or more)

The examples below pair each entry with its known result.
In [3]: df
Out[3]:
                         record_sequence  category
0  GGAGCCGAAAGGCGGTCC ((((((....)))..)))   class 2
1  GTACTGGGAAACTAGTGC (.(((.(....).))).)   class 1

Which category does the recorded folding enthalpy put GATCTCCTTGAGATC ((((((...)))))) in?
class 0

Which category does the recorded folding enthalpy put GACCTAGAAATAGGTC ((((((....)))))) in?
class 0

Which category does the recorded folding enthalpy put GGCGGCGCGAAAGCGGCC (((..(((....)))))) in?
class 2

Which category does the recorded folding enthalpy put GCATAAGGAAACCTATGC (((((.(....).))))) in?
class 1

Which category does the recorded folding enthalpy put GCATAGCGAAAGCACTGC (((..((....))..))) in?
class 1

Which category does the recorded folding enthalpy put GATACCGAAAGGTCATC ((((((....))).))) in?
class 1

Which category does the recorded folding enthalpy put GTTGTGACGAAAGTCAAC (((..(((....)))))) in?
class 1

Which category does the recorded folding enthalpy put GGACTGGGAAACTGGTCC ((((..(....)..)))) in?
class 1

Which category does the recorded folding enthalpy put GGCATCGAAAGATATGCC ((((((....)))..))) in?
class 1

Which category does the recorded folding enthalpy put GAAACCGAAAGGTATTTC ((((((....)))..))) in?
class 1
